Experiment description: 14C assay with IPTG-induced recombinant E. coli cells (14CO2 capture from [14C]-carboxyl-labeled dicamba)
Run conditions: IPTG-induced recombinant E. coli cells; [14C]-carboxyl-labeled dicamba; 14CO2 capture
Result type: Dicamba Decarboxylase Activity

Molecule | Result type | Result
95 (protein, listed as Pseudomonas fluorescens) MAKKPRIDMHSHFFPRISEQEAAKFDANHAPWLQVSAKGDTGSIMMGKNNFRPVYQALWDPAFRIEEMDAQGVDVQVTCATPVMFGYTWEANKAAQWAERMNDFALEFAAHNPQRIKVLAQVPLQDLDLACKEASRAVAAGHLGIQIGNHLGDKDLDDATLEAFLTHCANEDIPILVHPWDMMGGQRMKKWMLPWLVAMPAETQLAILSLILSGAFERIPKSLKICFGHGGGSFAFLLGRVDNAWRHRDIVREDCPRPPSEYVDRFFVDSAVFNPGALELLVSVMGEDRVMLGSDYPFPLGEQKIGGLVLSSNLGESAKDKIISGNASKFFNINV | Dicamba Decarboxylase Activity | No
105 (protein, Deinococcus radiodurans) MAIDFHVHLDLYPDPVAVARACEERQLTVLSVTTTPAAWRGTLALAAGRPHVWTALGFHPEVVSERAADLPWFDRYLPETRFVGEVGLDGSPSLRGTWTQQFAVFQHILRRCEDHGGRILSIHSRRAESEVLNCLEANPRSGTPILHWYSGSVTELRRAISLGCWFSVGPTMVRTQKGAALIRSMPRDRVLTETDGPFLELDGQAALPWDVKSVVEGLSKIWQIPASEVERIVKENVSRLLGTVR | Dicamba Decarboxylase Activity | No
